# target-of-assay: DLL3 (Homo sapiens)
# Sequence (Q9NYJ7 27-618): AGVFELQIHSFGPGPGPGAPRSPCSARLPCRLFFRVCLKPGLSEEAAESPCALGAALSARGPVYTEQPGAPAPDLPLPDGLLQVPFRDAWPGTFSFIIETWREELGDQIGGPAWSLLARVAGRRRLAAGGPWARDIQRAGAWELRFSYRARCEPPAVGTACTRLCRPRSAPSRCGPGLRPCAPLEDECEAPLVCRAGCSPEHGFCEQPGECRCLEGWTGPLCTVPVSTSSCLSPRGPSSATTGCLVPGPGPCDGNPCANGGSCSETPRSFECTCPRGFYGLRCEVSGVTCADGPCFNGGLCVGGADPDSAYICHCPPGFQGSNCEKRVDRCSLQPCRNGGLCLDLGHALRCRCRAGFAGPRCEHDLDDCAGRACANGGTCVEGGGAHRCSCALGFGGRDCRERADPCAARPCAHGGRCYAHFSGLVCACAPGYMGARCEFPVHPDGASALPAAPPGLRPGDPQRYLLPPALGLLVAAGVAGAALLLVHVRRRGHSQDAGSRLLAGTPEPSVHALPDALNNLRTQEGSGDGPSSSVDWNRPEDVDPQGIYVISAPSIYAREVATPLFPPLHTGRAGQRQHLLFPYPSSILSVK
# method-description: SPR KD, biotinylated human DLL3 on streptavidin chip (Table 8)
# Set-up: biotin (biotinylated)
# assay-setup: biotinylated human DLL3 on streptavidin sensor chip, 25° C., 1:1 binding model; read-out: SPR KD
pKd: −log10 of the molar value. Where a SMILES comes first, the peptide text is derived from it. Bridges are numbered along the chain shown (N, C = ends). [ ]: non-standard residue; d: D form. Sar = CNCC(=O)O
quantity-name: pKd

Recorded pKd for CC[C@H](C)[C@H](NC(=O)[C@@H](NC(=O)[C@H](Cc1c[nH]c2ccccc12)NC(C)=O)[C@@H](C)O)C(=O)N[C@H]1CSSC[C@@H](C(=O)N[C@@H](Cc2c[nH]c3ccccc23)C(=O)N(C)CC(N)=O)NC(=O)[C@H](CC(=O)O)NC(=O)[C@H](Cc2cnc[nH]2)NC(=O)[C@H](Cc2c[nH]c3ccccc23)NC(=O)[C@H](CC(N)=O)NC(=O)[C@H](CC(N)=O)NC1=O [compound 334] (Ac-WTICNNWHDCW[Sar]-NH2; disulfide 4-10) , please?
7.00 to 8.00
